Quantity: melting point

Below, each entry is followed by its recorded melting point result.
CC(C)(C)Oc1ccc(C(=O)C2=CN(C(C)(C)C)CCC2(C)C)cc1; 98 to 101 °C
CC1(C)CCN(c2ccc(C(C)(C)C)cc2)C=C1C(OC(=O)C1c2ccccc2-c2ccccc21)=C1c2ccccc2-c2ccccc21; 145 °C
CC1(C)CCN(C(C)(C)C)C=C1C(=O)c1ccc(C(=O)C2=CN(C(C)(C)C)CCC2(C)C)cc1; 243 °C (dec.)
CC1(C)CCN(C(C)(C)C)C=C1C(=O)c1ccc(C(=O)O)cc1; 80 to 83 °C

From here, focus on the item given below.
Entry CN(C)c1ccc(C(=O)C2=CN(C(C)(C)C)CCC2(C)C)cc1 , melting point reported as 162 to 163 °C

###

Assay Method Text: UV absorption properties (λmax, molar extinction coefficient ε, efficiency E 1%, 1 cm)
Type: physicochemical
Test Settings: Table 3
Please use Met for Ε (1%, 1 cm) under 800 and Not met for everything else, ties included.

CC1(C)CCN(C(C)(C)C)C=C1C(=O)Nc1ccccc1 [drawing 57]; Not met
Cc1ccc(NC(=O)C2=CN(C(C)(C)C)CCC2(C)C)cc1NC(=O)C1=CN(C(C)(C)C)CCC1(C)C [drawing 62]; Not met
CC1(C)CCN(C(C)(C)C)C=C1C(=O)Nc1ccc(NC(=O)C2=CN(C(C)(C)C)CCC2(C)C)cc1 [drawing 65]; Not met
Cc1ccc(S(=O)(=O)NC(=O)C2=CN(C(C)(C)C)CCC2(C)C)cc1 [drawing 64]; Not met
CC1(C)CCN(C(C)(C)C)C=C1C(=S)Nc1ccccc1 [drawing 60]; Met
CC1(C)CCN(C(C)(C)C)C=C1C(=O)NCCCCCCNC(=O)C1=CN(C(C)(C)C)CCC1(C)C [drawing 59]; Met
CC1(C)CCN(C(C)(C)C)C=C1C(=O)Nc1cccc(NC(=O)C2=CN(C(C)(C)C)CCC2(C)C)c1 [drawing 66]; Not met
CC1(C)CCN(C(C)(C)C)C=C1C(=O)Nc1ccc(Cc2ccc(NC(=O)C3=CN(C(C)(C)C)CCC3(C)C)cc2)cc1 [drawing 63]; Not met

--- query ---
API: query returns whether the molecule falls strictly under 800 in Ε (1%, 1 cm). Query: CN(C(=O)C1=CN(C(C)(C)C)CCC1(C)C)c1ccccc1 [drawing 58] Met

###

Assay Method Text: UV absorption properties (λmax, molar extinction coefficient ε, efficiency E 1%, 1 cm)
Type: physicochemical
Test Settings: values in order of the λmax values
Quantity: ε (molar extinction coefficient) (M⁻¹ cm⁻¹)
Return type: number; implicit unit M⁻¹ cm⁻¹.

Below, each entry is followed by its recorded ε (molar extinction coefficient) result.
CCC(=O)C1=CN(c2ccccc2)CCC1(C)C [Compound 47]; 23000
Cc1nn(C)c(N2C=CC(C)(C)C=C2)c1C(=O)C(F)(F)F [Compound 200]; 10016
CC1(C)CCN(C(C)(C)C)C=C1C(=O)/C=C/c1ccccc1 [Compound 155]; 23198

Entry C=CC(=O)C1=CN(c2ccccc2)CCC1(C)C [Compound 48] , ε (molar extinction coefficient) reported as 21000

###

Assay Method Text: UV absorption properties (λmax, molar extinction coefficient ε, efficiency E 1%, 1 cm)
Type: physicochemical
Test Settings: values in order of the λmax values
Classification field: Condition met = ε (molar extinction coefficient) at or over 20000 M⁻¹ cm⁻¹; Condition not met = ε (molar extinction coefficient) under 20000 M⁻¹ cm⁻¹.

Please review the following examples before continuing.
CC(C)(C)Oc1ccc(C(=O)C2=CN(C(C)(C)C)CCC2(C)C)cc1 [Compound 158]; Condition met
CC1(C)CCN(C(C)(C)C)C=C1C(=O)CCCCCCCCC(=O)C1=CN(C(C)(C)C)CCC1(C)C [Compound 166]; Condition met
CC1(C)CCN(C(C)(C)C)C=C1C(=O)COc1ccccc1 [Compound 168]; Condition met
CC1(C)CCN(C(C)(C)C)C=C1C(=O)Nc1ccc(Cc2ccc(NC(=O)C3=CN(C(C)(C)C)CCC3(C)C)cc2)cc1 [Compound 185]; Condition met
CC(C)CN1C=C(C(=O)c2ccc(N(C)C)cc2)C(C)(C)CC1 [Compound 15]; Condition not met
C=C(C)C(=O)C1=CN(CC(C)C)CCC1(C)C [Compound 36]; Condition not met

Exam item: decide whether the reported ε (molar extinction coefficient) for CC1(C)C=CN(c2ccccc2)C=C1 [Compound 50] is at least 20000 M⁻¹ cm⁻¹. Condition not met

Exam item: decide whether the reported ε (molar extinction coefficient) for CC1(C)CCN(c2ccc(C(C)(C)C)cc2)C=C1C(=O)C(c1ccccc1)c1ccccc1 [Compound 204] is at least 20000 M⁻¹ cm⁻¹. Condition not met

Exam item: decide whether the reported ε (molar extinction coefficient) for CC(C)CN1C=C(C(=O)c2ccc(C(C)(C)C)cc2)C(C)(C)CC1 [Compound 11] is at least 20000 M⁻¹ cm⁻¹. Condition not met

Exam item: decide whether the reported ε (molar extinction coefficient) for CC1(C)CCN(C(C)(C)C)C=C1C(=O)Nc1ccccc1 [Compound 179] is at least 20000 M⁻¹ cm⁻¹. Condition met

The origin of these recorded values is patent US10519111B2.
